For each of the compounds below, state its activity, negative = inhibition.
experimental.target: Cytochrome P450 2C9 (Homo sapiens) (UniProt P11712)
Sequence (P11712 whole entry, looked up): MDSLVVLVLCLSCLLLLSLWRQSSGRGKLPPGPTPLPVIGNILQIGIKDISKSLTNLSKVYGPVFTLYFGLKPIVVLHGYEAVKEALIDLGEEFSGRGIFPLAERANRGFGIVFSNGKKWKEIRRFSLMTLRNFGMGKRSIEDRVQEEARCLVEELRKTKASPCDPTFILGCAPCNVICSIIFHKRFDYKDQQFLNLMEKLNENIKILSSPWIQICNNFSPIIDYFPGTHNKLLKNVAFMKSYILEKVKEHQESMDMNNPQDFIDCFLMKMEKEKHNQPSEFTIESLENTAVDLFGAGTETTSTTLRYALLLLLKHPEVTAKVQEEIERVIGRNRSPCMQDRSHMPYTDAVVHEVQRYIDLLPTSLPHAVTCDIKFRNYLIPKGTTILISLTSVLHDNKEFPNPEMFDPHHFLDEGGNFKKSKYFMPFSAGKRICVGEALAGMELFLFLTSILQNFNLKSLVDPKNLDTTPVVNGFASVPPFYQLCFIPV
experiment: Cytochrome panel assay with activity outcomes; further: on the % scale 0 is the no-effect control and ±100 the full control effect
condition.summary: recombinant CYP, pro-luciferin dealkylation, luminescence, p450-cyp2c9; series mostly up to 57.1 µM
Screen size: about 16,000 compounds; about 4,000 (25%) were called active. Roughly 26% stayed inconclusive and do not appear here. Only a sample is shown.

>  <molecule>
CN(Cc1cccc2ccccc12)Cc1cccc2ccccc12

>  <experimental.target>
Cytochrome P450 2C9 (Homo sapiens) (UniProt P11712)

>  <test.readout>
activity, negative = inhibition

>  <assay.result>
-23.2% [at 11.4 µM] (inactive)

$$$$
>  <molecule>
CCN1C(=O)[C@H]2[C@H]3[C@H](O)[C@H](O)C/C(=N/NC(=O)OCc4ccccc4)[C@H]3CC[C@@H]2C1=O

>  <experimental.target>
Cytochrome P450 2C9 (Homo sapiens) (UniProt P11712)

>  <test.readout>
activity, negative = inhibition

>  <assay.result>
-10.2% [at 11.4 µM] (inactive)

$$$$
>  <molecule>
C[C@@H](N=C(N)N)C(=O)O

>  <experimental.target>
Cytochrome P450 2C9 (Homo sapiens) (UniProt P11712)

>  <test.readout>
activity, negative = inhibition

>  <assay.result>
11.8% [at 11.4 µM] (inactive)

$$$$
>  <molecule>
Nc1nc(-c2cc(-c3cccc4ccccc34)nc(N)n2)cc(-c2cccc3ccccc23)n1

>  <experimental.target>
Cytochrome P450 2C9 (Homo sapiens) (UniProt P11712)

>  <test.readout>
activity, negative = inhibition

>  <assay.result>
10.6% [at 11.4 µM] (inactive)

$$$$

Moving on to the next compound.
// activity, negative = inhibition lookup, compound = `NNC(=O)[C@@H](O)[C@H](O)[C@H](O)CO` , result: -4.21% [at 11.4 µM] (inactive)

This collection of values is drawn from PubChem BioAssay AID1851.
